Molecular target: Keap1 (Homo sapiens (Human))
Sequence (Q14145 whole entry): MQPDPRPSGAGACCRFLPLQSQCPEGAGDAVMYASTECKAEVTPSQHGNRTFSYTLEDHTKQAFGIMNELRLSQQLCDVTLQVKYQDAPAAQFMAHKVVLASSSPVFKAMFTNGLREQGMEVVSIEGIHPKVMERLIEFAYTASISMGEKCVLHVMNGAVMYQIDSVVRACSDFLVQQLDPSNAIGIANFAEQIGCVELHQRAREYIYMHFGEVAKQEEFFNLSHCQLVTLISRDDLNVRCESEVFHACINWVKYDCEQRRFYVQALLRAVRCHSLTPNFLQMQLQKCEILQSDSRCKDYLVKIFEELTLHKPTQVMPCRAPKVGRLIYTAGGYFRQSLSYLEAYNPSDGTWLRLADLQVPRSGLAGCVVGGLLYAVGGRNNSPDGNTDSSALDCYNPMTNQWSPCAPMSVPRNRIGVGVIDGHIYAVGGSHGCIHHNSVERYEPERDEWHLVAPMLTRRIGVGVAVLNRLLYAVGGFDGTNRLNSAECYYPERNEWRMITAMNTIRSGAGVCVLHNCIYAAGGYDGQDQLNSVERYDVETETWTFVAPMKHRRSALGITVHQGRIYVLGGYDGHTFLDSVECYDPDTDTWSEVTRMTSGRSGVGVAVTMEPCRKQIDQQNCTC
Experiment: HEK293 ARE luciferase assay
Details: HEK-293 ARE firefly luciferase transiently transfected cells; 18 h incubation; mean of 1 to 20 individual measurements
Method: The purpose of this assay is to identify small molecule inhibitors of Keap1, preventing Keap1 binding to Nrf2, and thus activating the Nrf2 signalling pathway in HEK-293 ARE firefly luciferase transiently transfected cells. HEK-293 cells express wild-type Keap1 protein and therefore have low constitutive levels of Nrf2 protein and Nrf2-dependent transcription. […] The mean values were calculated from anywhere from 1 to 20 individual measurements.
RESULT TYPE: log10(EC50) (log10 of the value in nM)

{"columns": ["COMPOUND", "MEASURED ON", "log10(EC50)"],
 "data": [
  ["COC1(c2cccc(N3CCOCC3)n2)C=C(C#N)C(=O)C(C)(C)C1 (stereo not shown)", "Keap1 (Homo sapiens (Human))", 2.04],
  ["COC1(c2cccc(-n3ccnc3C)n2)C=C(C#N)C(=O)C(C)(C)C1 (stereo not shown)", "Keap1 (Homo sapiens (Human))", 2.08],
  ["COC1(c2ncc(F)cc2F)C=C(C#N)C(=O)C(C)(C)C1 (single isomer, unassigned) [Compound 44]", "Keap1 (Homo sapiens (Human))", 1.57],
  ["COC1(c2ncc(F)cc2C)C=C(C#N)C(=O)C2(CCCC2)C1 (stereo not shown) [Compound 149]", "Keap1 (Homo sapiens (Human))", 2.30],
  ["COC1(c2ncc(F)cc2-c2cccnc2C)C=C(C#N)C(=O)C(C)(C)C1 (single isomer, unassigned) [Compound 79]", "Keap1 (Homo sapiens (Human))", 1.87],
  ["COC1(c2ncc(F)cc2-c2ccc(F)cc2)C=C(C#N)C(=O)C(C)(C)C1 (stereo not shown) [Compound 163]", "Keap1 (Homo sapiens (Human))", 1.73],
  ["CO[C@]1(c2ncc(F)cc2-c2ccc(=O)n(C)c2)C=C(C#N)C(=O)C(C)(C)C1", "Keap1 (Homo sapiens (Human))", 1.18],
  ["COC1(c2ncc(F)cc2-c2cnnc(C)c2)C=C(C#N)C(=O)C(C)(C)C1 (single isomer, unassigned)", "Keap1 (Homo sapiens (Human))", 1.18],
  ["COC1CN(c2cccc(C3(OC)C=C(C#N)C(=O)C(C)(C)C3)n2)C1 (stereo not shown)", "Keap1 (Homo sapiens (Human))", 2.27],
  ["COC1(c2cccc(-c3nccs3)n2)C=C(C#N)C(=O)C(C)(C)C1 (stereo not shown)", "Keap1 (Homo sapiens (Human))", 2.37],
  ["COC1(c2ncc(F)cc2C(F)(F)F)C=C(C#N)C(=O)C(C)(C)C1 (single isomer, unassigned) [Compound 26]", "Keap1 (Homo sapiens (Human))", 1.38],
  ["COC1(c2scnc2C)C=C(C#N)C(=O)C(C)(C)C1 (stereo not shown) [Compound 150]", "Keap1 (Homo sapiens (Human))", 2.17],
  ["COC1(c2ncc(F)cc2-c2c(C)nn(C)c2C)C=C(C#N)C(=O)C(C)(C)C1 (stereo not shown) [Compound 189]", "Keap1 (Homo sapiens (Human))", 3.18],
  ["COC1(c2ncc(F)cc2F)C=C(C#N)C(=O)C(C)(C)C1 (stereo not shown) [Compound 28]", "Keap1 (Homo sapiens (Human))", 1.56],
  ["COC1(c2ncc(F)cc2OC(F)F)C=C(C#N)C(=O)C(C)(C)C1 (single isomer, unassigned) [Compound 47]", "Keap1 (Homo sapiens (Human))", 0.90],
  ["COC1(c2ncc(F)cc2OC(F)F)C=C(C#N)C(=O)C2(CC2)C1 (single isomer, unassigned) [Compound 62]", "Keap1 (Homo sapiens (Human))", 1.18],
  ["COC1(c2cccc(-c3cnn(C)c3)n2)C=C(C#N)C(=O)C2(CC2)C1 (stereo not shown) [Compound 126]", "Keap1 (Homo sapiens (Human))", 1.93],
  ["COC1(c2ncc(F)cc2C)C=C(C#N)C(=O)C(C)(C)C1 (stereo not shown) [Compound 137]", "Keap1 (Homo sapiens (Human))", 1.67],
  ["COC1(c2ccccn2)C=C(C#N)C(=O)C(C)(C)C1 (stereo not shown)", "Keap1 (Homo sapiens (Human))", 1.93],
  ["COC1(c2ncc(F)cc2-c2cnn(C3CCCC3)c2)C=C(C#N)C(=O)C(C)(C)C1 (single isomer, unassigned) [Compound 83]", "Keap1 (Homo sapiens (Human))", 1.85],
  ["COC1(c2ncccc2Cl)C=C(C#N)C(=O)C(C)(C)C1 (stereo not shown)", "Keap1 (Homo sapiens (Human))", 2.37],
  ["COC1(c2ncc(F)cc2-c2sc(C)nc2C)C=C(C#N)C(=O)C(C)(C)C1 (stereo not shown) [Compound 191]", "Keap1 (Homo sapiens (Human))", 1.08],
  ["COC1(c2nc(C)c(-c3ccccn3)s2)C=C(C#N)C(=O)C(C)(C)C1 (single isomer, unassigned) [Compound 99]", "Keap1 (Homo sapiens (Human))", 1.82],
  ["COC1(c2ncc(F)cc2-c2ccn3nc(C)nc3c2)C=C(C#N)C(=O)C(C)(C)C1 (single isomer, unassigned)", "Keap1 (Homo sapiens (Human))", 1.00]
]}

Where do the numbers come from? From patent US11479539B2.
